- tgt: zinc-independent Aβ42 aggregates (Homo sapiens, UniProt P05067)
- Construct: 15 μM Aβ42 peptide in TrisHCl—NaCl buffer
- assay_info: Bis-ANS fluorescence assay of disaggregation of zinc-independent Aβ42 aggregates
- experimental_conditions: Aβ42 15 μM, bis-ANS 15 μM, Tris-buffered saline, without Zn2+
observable: EC50 (µM)
Numbers only, in µM.

Solved cases below.
INSERT INTO results (structure_as_smiles, tgt, value_measured) VALUES
  ('COc1ccc(N(c2ccc(OC)cc2)c2ccc(-c3cc4ccc(C=C(C#N)C(=O)O)cc4o3)cc2)cc1', 'zinc-independent Aβ42 aggregates (Homo sapiens, UniProt P05067)', 3.01),
  ('N#CC(=Cc1ccc2cc(-c3ccc(N(c4cccnc4)c4cccnc4)cc3)oc2c1)C(=O)O', 'zinc-independent Aβ42 aggregates (Homo sapiens, UniProt P05067)', 5.59),
  ('NC(=O)C(=Cc1ccc2cc(-c3ccc(N(c4ccccc4)c4ccccc4)cc3)oc2c1)C(N)=O', 'zinc-independent Aβ42 aggregates (Homo sapiens, UniProt P05067)', 0.46);

Field request: EC50 | item: `N#CC(=Cc1ccc(-c2cc3ccc(N(c4ccccc4)c4ccccc4)cc3o2)cc1)C(=O)O`
11.5

* * *

Kindly state EC50 for each of the entries shown.
- tgt: zinc-induced Aβ42 aggregates (Homo sapiens)
- Construct: 15 μM Aβ42 peptide in TrisHCl—NaCl buffer
- Sequence (P05067 672-713 limits assumed): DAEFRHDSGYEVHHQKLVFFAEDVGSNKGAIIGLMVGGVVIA
- assay_info: Bis-ANS fluorescence assay of disaggregation of zinc-induced Aβ42 aggregates
- Type: biochemical
- experimental_conditions: Aβ42 15 μM, bis-ANS 15 μM, Tris-buffered saline, with 15 μM Zn2+
Give bare numbers, in nM.

Sample records with EC50:
INSERT INTO assay_data (compound, observable, value_measured) VALUES
  ('N#CC(=Cc1ccc2cc(-c3ccc(N(c4cccnc4)c4cccnc4)cc3)oc2c1)C(=O)O', 'EC50', 2220),
  ('N#CC(=Cc1ccc2cc(-c3ccc(N(c4ccccc4)c4ccccc4)cc3)oc2c1)C(N)=O', 'EC50', 2700),
  ('O=C(O)CN(CCN(CC(=O)O)CC(=O)O)CC(=O)O [EDTA, reference compound]', 'EC50', 46100),
  ('COC(=O)C(C#N)=Cc1ccc2cc(-c3ccc(N(c4ccccc4)c4ccccc4)cc3)oc2c1', 'EC50', 4120),
  ('COc1ccc(N(c2ccc(OC)cc2)c2ccc(-c3cc4ccc(C=C(C#N)C(=O)O)cc4o3)cc2)cc1', 'EC50', 1710),
  ('N#CC(=Cc1ccc2cc(-c3ccc(N(c4ccccc4)c4ccccc4)cc3)oc2c1)C(=O)NCc1ccccn1', 'EC50', 2230),
  ('N#CC(=Cc1cc2ccc(N(c3ccccc3)c3ccccc3)cc2o1)C(=O)O', 'EC50', 540);

Now take the following compound into account.
Write down the reported EC50 of `NC(=O)C(=Cc1ccc2cc(-c3ccc(N(c4ccccc4)c4ccccc4)cc3)oc2c1)C(N)=O` , test system: zinc-induced Aβ42 aggregates (Homo sapiens).
1090

* * *

For each of the molecules below, state its log10(EC50).
- tgt: amylin aggregates (Homo sapiens, UniProt P10997)
- Construct: Amylin (15 μM) in TrisHCl—NaCl buffer was allowed to aggregate for 24 hr
- Sequence (P10997 34-70 limits assumed): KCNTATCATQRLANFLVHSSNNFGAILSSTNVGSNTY
- assay_info: Bis-ANS fluorescence assay of disaggregation of amylin aggregates
- experimental_conditions: 15 μM amylin, bis-ANS 15 μM, Tris-buffered saline, compound added after 24 hr aggregation
All values: log10 EC50 [nM].

Look up log10(EC50) for the entries below, preserving their order.
1. N#CC(C#N)=Cc1ccc2cc(-c3ccc(N(c4ccccc4)c4ccccc4)cc3)oc2c1
2. N#CC(=Cc1ccc2cc(-c3ccc(N4CCCCC4)cc3)oc2c1)C(=O)O
3. CN(c1ccccc1)c1ccc(-c2cc3ccc(C=C(C#N)C(=O)O)cc3o2)cc1
4. N#CC(=Cc1ccc2oc(-c3ccc(N(c4ccccc4)c4ccccc4)cc3)cc2c1)C(=O)O
5. CCN(CC)c1ccc(-c2cc3ccc(C=C(C#N)C(=O)O)cc3o2)cc1
6. CC(C)(C)c1ccc(N(c2ccc(-c3cc4ccc(C=C(C#N)C(=O)O)cc4o3)cc2)c2ccc(C(C)(C)C)cc2)cc1
7. N#CC(=Cc1ccc2cc(-c3ccc(N(c4ccccc4)c4ccccc4)cc3)oc2c1)C(=O)NCc1ccccn1

3.32
2.79
2.15
2.66
2.32
3.24
3.26

For every record below, what is its log10(EC50)?
1. COC(=O)C(C#N)=Cc1ccc2cc(-c3ccc(N(c4ccccc4)c4ccccc4)cc3)oc2c1
2. N#CC(=Cc1ccc2cc(-c3ccc(N(c4ccccc4)c4ccccc4)cc3)oc2c1)C(N)=O
3. N#CC(=Cc1ccc2cc(-c3ccc(N4CCOCC4)cc3)oc2c1)C(=O)O
4. O=C(O[C@@H]1Cc2c(O)cc(O)cc2O[C@@H]1c1cc(O)c(O)c(O)c1)c1cc(O)c(O)c(O)c1 [EGCG, Epigallocatechin gallate, reference compound]

1. 3.40
2. 2.90
3. 2.92
4. 2.93
